Measured Average difference in deuterium levels, LOOP 273-295 values are reported for all entries that follow.
Target: ERβ LBD (amino acids 257–502) (Homo sapiens)
Sequence (Q92731 257-502): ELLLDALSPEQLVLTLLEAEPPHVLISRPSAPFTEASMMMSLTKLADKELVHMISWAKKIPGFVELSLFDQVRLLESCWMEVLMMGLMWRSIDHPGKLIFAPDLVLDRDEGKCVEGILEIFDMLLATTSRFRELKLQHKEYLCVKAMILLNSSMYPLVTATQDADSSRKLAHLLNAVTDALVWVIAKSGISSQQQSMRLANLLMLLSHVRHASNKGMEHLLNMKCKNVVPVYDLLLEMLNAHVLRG
Assay: Differential HDX mass spectrometry of ERβLBD with and without ligand
Type: binding
Settings: ERβLBD:ligand 1:10; average of 1, 30, 60, 900, 4200 sec; negative = protection
property_measured: Average difference in deuterium levels, LOOP 273-295 (%)

INSERT INTO assay_data (molecule, tested_system, measured_value) VALUES
  ('C[C@]12CC[C@@H]3c4ccc(O)cc4CC[C@H]3[C@@H]1CC[C@@H]2O', 'ERβ LBD (amino acids 257–502) (Homo sapiens)', '−6'),
  ('CC/C(=C(\c1ccc(O)cc1)c1ccc(OCCN(C)C)cc1)c1ccccc1 [4-hydroxy tamoxifen, 4-hydroxytamoxifen]', 'ERβ LBD (amino acids 257–502) (Homo sapiens)', '−11'),
  ('O=C(c1ccc(OCCN2CCCCC2)cc1)c1c(-c2ccc(O)cc2)sc2cc(O)ccc12', 'ERβ LBD (amino acids 257–502) (Homo sapiens)', '−7'),
  ('CC/C(=C(/CC)c1ccc(O)cc1)c1ccc(O)cc1', 'ERβ LBD (amino acids 257–502) (Homo sapiens)', '−10'),
  ('O=C(c1ccc(O)cc1)c1c(-c2ccc(O)cc2)sc2cc(O)ccc12', 'ERβ LBD (amino acids 257–502) (Homo sapiens)', '−7'),
  ('Oc1ccc2c(c1)CC[C@H](c1ccccc1)[C@@H]2c1ccc(OCCN2CCCC2)cc1', 'ERβ LBD (amino acids 257–502) (Homo sapiens)', '−9'),
  ('O=C(c1ccc(OCCN2CCCC2)cc1)c1c(-c2ccc(O)cc2)sc2cc(O)ccc12', 'ERβ LBD (amino acids 257–502) (Homo sapiens)', '−7'),
  ('C[C@]12CC[C@@H]3c4ccc(O)cc4C[C@@H](CCCCCCCCC[S+]([O-])CCCC(F)(F)C(F)(F)F)[C@H]3[C@@H]1CC[C@@H]2O (some centres unmarked)', 'ERβ LBD (amino acids 257–502) (Homo sapiens)', '−10');

###

Target: ERα (Homo sapiens, UniProt P03372)
Sequence (P03372 1-595): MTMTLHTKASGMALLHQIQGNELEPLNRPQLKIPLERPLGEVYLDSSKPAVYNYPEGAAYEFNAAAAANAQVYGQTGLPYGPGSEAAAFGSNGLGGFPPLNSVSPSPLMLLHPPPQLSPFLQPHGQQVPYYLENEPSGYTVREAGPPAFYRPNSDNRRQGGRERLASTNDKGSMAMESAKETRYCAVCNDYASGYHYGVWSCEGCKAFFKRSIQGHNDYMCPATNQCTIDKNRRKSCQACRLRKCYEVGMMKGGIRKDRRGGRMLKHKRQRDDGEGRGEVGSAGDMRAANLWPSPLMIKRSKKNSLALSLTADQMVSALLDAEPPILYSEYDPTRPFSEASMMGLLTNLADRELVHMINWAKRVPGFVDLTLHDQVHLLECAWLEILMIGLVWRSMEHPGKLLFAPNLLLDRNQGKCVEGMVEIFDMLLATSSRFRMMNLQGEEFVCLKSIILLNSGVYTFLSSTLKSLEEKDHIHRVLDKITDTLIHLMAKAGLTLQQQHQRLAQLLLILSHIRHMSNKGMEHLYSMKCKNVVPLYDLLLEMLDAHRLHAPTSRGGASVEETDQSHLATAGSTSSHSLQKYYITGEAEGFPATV
pKi: −log10 of the molar value.
property_measured: pKi

INSERT INTO results (compound, measured_value) VALUES
  ('O=C(c1ccc(OCCN2CCCC2)cc1)c1c(-c2ccc(O)cc2)sc2cc(O)ccc12 [compound 117018]', 9.49);
